Tested on: PPARg:RXRa 90nM:30nM, anti-RXR (NR concentration 90 nM, RXRa partner concentration 30 nM)
assay: PBM binding z-score (relative to random genomic background probes); higher = stronger binding; sequences stand for … in GC…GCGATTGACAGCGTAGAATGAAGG
Below, each entry is listed alongside its reported PBM binding z-score.
No unit in the answer, only the number.

Answered examples (5):
sequence_chain=GCTGCTAGGTCAGGTTGGTCAGGTAACGGGTACG numeric_result=0.573
sequence_chain=GCGACTGGGGCAGAGCAGGTTACCATAAGGTTGG numeric_result=-0.178
sequence_chain=AGTCAAAGTGCAGGACGAGGTAACGTAAAGCACG numeric_result=0.389
sequence_chain=CGTCCAAGGTCATAGGAGGTCAGTGCAGACAGAT numeric_result=4.56
sequence_chain=CCTACTGGGCCACGAAGGGTCATTGATTCAGTGA numeric_result=2.58

Request the reported PBM binding z-score associated with TCATATAGGTAAAGGTCAAAGTCGAACGATATGA
7.15

# repeat for CGAACTAGGTCAAGGACAGTGAATCTCCGCACGC
6.11

And for TCATATAGGTAAAGGTGAAAGTAGAACGATATGA ?
4.86

Another sequence to check: CCTATTTGGTCAGGAGGTCACACACCGGATATGA
3.23

Queued: GGAACGAGGGCATTCGAGTCGATAGCATGGCGAT
0.0537

Another: CTCGAAACGTCGTGCTCAGGTGAGTATACCAAAC
-0.34

Then CCTACTGAGCCACGAAAGGTCATTGATTCAGTGA ?
1.93

* * *

Test system: RXRa homodimer (NR concentration 180 nM)
assay: PBM binding z-score (relative to random genomic background probes); higher = stronger binding; sequences stand for … in GC…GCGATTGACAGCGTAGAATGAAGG
Grouping rule (PBM binding z-score): LOW (below 1), MID (1 to below 3), HIGH (3 or more)

sequence_chain=ATCTCTAGGTATAGATAGTTCAGTGAATGCAAAT class_assignment=LOW
sequence_chain=ACTAGTTGGTCAGCTGAGGTCACACATAATTCGG class_assignment=HIGH
sequence_chain=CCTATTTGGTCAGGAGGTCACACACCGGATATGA class_assignment=HIGH

Hey, which category is ATACCAAGGTGATCGTGAGGTCGCTGATACTAAC in, do you know?
MID

Subsequent entry: ACAGACAGGTGATGAATGTAACTCAGGCTATCAT
LOW

Would you kindly repeat that for TGCCAAAGTTCAAAGGTAACGTAAGTATCCACAC ?
HIGH

Next record, please: TCTGCTACGTCAACGATGGTCAGCTAATCTGCTA
LOW

* * *

System: PPARg:RXRa IVT, anti-PPARg (NR concentration 270 nM, RXRa partner concentration 90 nM)
assay: PBM binding z-score (relative to random genomic background probes); higher = stronger binding; sequences stand for … in GC…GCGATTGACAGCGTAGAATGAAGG
measured_attribute: PBM binding z-score
Give a plain numeric answer without units written out.

Look over these answered cases.
sequence_chain=TCTTGTAGATCCACAGGAGGTTAAGAAAGATCGA target_desc="PPARg:RXRa IVT, anti-PPARg (NR concentration 270 nM, RXRa partner concentration 90 nM)" numeric_result=0.557
sequence_chain=CTTTACGGGTCACGAGGTTATAGCACGACGAGCG target_desc="PPARg:RXRa IVT, anti-PPARg (NR concentration 270 nM, RXRa partner concentration 90 nM)" numeric_result=6.46
sequence_chain=CAGCCTAGGTCAGGGCCAGTATCGGAGGAACGTT target_desc="PPARg:RXRa IVT, anti-PPARg (NR concentration 270 nM, RXRa partner concentration 90 nM)" numeric_result=1.55

Form entry - test system: PPARg:RXRa IVT, anti-PPARg (NR concentration 270 nM, RXRa partner concentration 90 nM); read-out: PBM binding z-score; sequence: TCGAGTAGGTTAGCGGCATTCAGAATGGCGTCGA
0.944

Entry ATCTCTAGTTAAGACTCAGTTCAGTGAAGAACGC please
0.194

Now try TATACAGGGTTAAAGGCCAGAGTACGAATGTCGA .
2.95

Then what about the sequence AGTCAACGTTCAGGACGAGGTAACGTAAAGCACG ?
-0.129

Try this sequence too: CCTACTGGGCCACGAAAGGTCACTGATTCAGTGA
6.08

Same lookup for TCTCGTAGATCAAAGGTTAAGAAAGCCGAAGCCT , please.
1.46

What about CAAACTAGGTCAAAGGTTAAAGTCGAGCCAACCA ?
9.36

Input CATACAGGGTCAGCTATGCCAGAGTAGGGACGGC
2.38
